Test system: LXRa:RXRa (NR concentration 270 nM, RXRa partner concentration 90 nM)
Test: PBM binding z-score (relative to random genomic background probes); higher = stronger binding; sequences stand for … in GC…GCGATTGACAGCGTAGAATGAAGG
Property: PBM binding z-score; scope: individual sequences
Just the number, please, no unit after it.

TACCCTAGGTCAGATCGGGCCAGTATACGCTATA = 4.7
GCATGTAGATCAAGGTTAAGAAAGACTAAGCTAA = 0.684
ATAGAAAGGTCGTGAGGTGAGTATACAGAAAGGC = 3.76
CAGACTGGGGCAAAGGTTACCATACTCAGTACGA = 2.13
GCAGACAGGTGAAACGCAGATAACTCAGGGTGGC = -0.00809

Request: Look up PBM binding z-score for this sequence: TCTTGTAGATCAACAGGAGGTTAAGAATGATCGA
Response: 0.729

====

Property: PBM binding z-score; scope: individual sequences
Tested on: RARa homodimer (NR concentration 270 nM)
Test: PBM binding z-score (relative to random genomic background probes); higher = stronger binding; sequences stand for … in GC…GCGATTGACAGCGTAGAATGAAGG
Just the number, please, no unit after it.

Recorded results for 3 sequences are shown here.
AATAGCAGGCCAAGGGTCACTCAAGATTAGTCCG = 0.758
TCATATAGGTAAAAGGCGAAAGTCGGTGTGGTAA = 0.926
ATACCAAGGTGATCGTGAGGTCTTTGATACTAAC = 0.255

Request: Look up PBM binding z-score for this sequence: ATCTCTAGGTAAAGATAGTTTAGTGAATGCAAAT
Response: 0.933

Request: Look up PBM binding z-score for this sequence: ACAGACAGGTGATGAAGGTAACTTAGGCTATCAT
Response: 0.132

Request: Look up PBM binding z-score for this sequence: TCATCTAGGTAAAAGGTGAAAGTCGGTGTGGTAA
Response: 1.26

====

Tested on: RARb:RXRa (NR concentration 270 nM, RXRa partner concentration 90 nM)
Test: PBM binding z-score (relative to random genomic background probes); higher = stronger binding; sequences stand for … in GC…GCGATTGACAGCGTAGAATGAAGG
Use 1 (yes) when the recorded PBM binding z-score is no lower than 1; use 0 (no) when it is lower.

Study these solved cases before continuing.
CCAGACAGGTGAGAATGTAACTCAGCCTCGATTA = 0 (no)
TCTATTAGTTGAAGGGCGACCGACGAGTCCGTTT = 0 (no)
ATCGAAAAGTCGTGAGGTGAGTATACAGAAAGGC = 0 (no)
CCGACTAGGGCAAAGGTTACCATACTCAGTACGA = 1 (yes)
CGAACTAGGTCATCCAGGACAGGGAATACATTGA = 1 (yes)

Request: Could you verify whether the entry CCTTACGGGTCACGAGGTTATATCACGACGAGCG shows PBM binding z-score of no less than 1?
Response: 1 (yes)

====

Test system: RARa homodimer (NR concentration 270 nM)
Test: PBM binding z-score (relative to random genomic background probes); higher = stronger binding; sequences stand for … in GC…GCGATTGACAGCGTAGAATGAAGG
Property Name: PBM binding z-score
Just the number, please, no unit after it.

Recorded results for 5 sequences are shown here.
TGTACAGGGTCAAAGGCCAGAGTACGAATGTCGA = 0.38
CCGACTGGGGCAGAAAGTTTACCATACCATCCGG = -0.166
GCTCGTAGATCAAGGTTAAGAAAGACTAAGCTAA = -0.428
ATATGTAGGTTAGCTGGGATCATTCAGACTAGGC = 0.6
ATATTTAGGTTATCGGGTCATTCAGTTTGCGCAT = 4.33

Request: Give PBM binding z-score (RARa homodimer (NR concentration 270 nM)) of the following sequence: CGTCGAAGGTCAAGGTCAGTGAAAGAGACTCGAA
Response: 1.26

Request: Give PBM binding z-score (RARa homodimer (NR concentration 270 nM)) of the following sequence: CCTTACCGGTCACGAGGTTATAGCACGACGAGCG
Response: 1.45

Request: Give PBM binding z-score (RARa homodimer (NR concentration 270 nM)) of the following sequence: CGTCAAAGTTCAAGGTAACATAACAGAAAGCAGC
Response: 1.23

Request: Give PBM binding z-score (RARa homodimer (NR concentration 270 nM)) of the following sequence: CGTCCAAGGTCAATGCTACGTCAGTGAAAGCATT
Response: 0.867

Request: Give PBM binding z-score (RARa homodimer (NR concentration 270 nM)) of the following sequence: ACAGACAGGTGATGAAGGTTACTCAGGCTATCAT
Response: 0.502

Request: Give PBM binding z-score (RARa homodimer (NR concentration 270 nM)) of the following sequence: CCGACTCGGGCATAAGGTTACCATAAGCCAGCCC
Response: -0.315

Request: Give PBM binding z-score (RARa homodimer (NR concentration 270 nM)) of the following sequence: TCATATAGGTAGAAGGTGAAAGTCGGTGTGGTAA
Response: 1.42

====

System: PPARg DBDmut IVT, anti-PPARg (DBD mutation: PPARg1 K132A/R137A, NR concentration 270 nM)
Test: PBM binding z-score (relative to random genomic background probes); higher = stronger binding; sequences stand for … in GC…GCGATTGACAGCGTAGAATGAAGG
Property Name: PBM binding z-score
Just the number, please, no unit after it.

Recorded results for 5 sequences are shown here.
ATCGAAAGGTCGACGATGTGAGTATACACCGTTT = 1.25
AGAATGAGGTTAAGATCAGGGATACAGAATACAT = 0.843
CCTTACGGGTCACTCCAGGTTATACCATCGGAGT = -0.4
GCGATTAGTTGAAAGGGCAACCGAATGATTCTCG = -0.4
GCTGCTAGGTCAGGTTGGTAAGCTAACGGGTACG = -1.39

Request: Look up PBM binding z-score for this sequence: CCTACTGGGCCATCAGGTCGTTGATATCAACGTT
Response: -0.752

====

System: FXR:RXRa (NR concentration 270 nM, RXRa partner concentration 90 nM)
Test: PBM binding z-score (relative to random genomic background probes); higher = stronger binding; sequences stand for … in GC…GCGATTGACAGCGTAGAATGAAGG
Property Name: PBM binding z-score

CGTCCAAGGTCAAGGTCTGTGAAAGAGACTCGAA = 7.12

Request: Look up PBM binding z-score for this sequence: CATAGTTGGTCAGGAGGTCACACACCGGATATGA
Response: 3.73

Request: Look up PBM binding z-score for this sequence: ATCGAAAGGTCGACGAGGTGAGTATACACCGTTT
Response: 4.62

Request: Look up PBM binding z-score for this sequence: ACTATTAGTTGACTTAGGGCTACCGATACGACGC
Response: 0.0661

Request: Look up PBM binding z-score for this sequence: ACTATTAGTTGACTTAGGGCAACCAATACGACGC
Response: 0.265

Request: Look up PBM binding z-score for this sequence: CCTAGTTGGACAAGGTCACACACGCTATAGGTAC
Response: 3.57

Request: Look up PBM binding z-score for this sequence: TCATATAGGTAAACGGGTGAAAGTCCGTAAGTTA
Response: 0.647

====

System: PPARg:RXRa 90nM:30nM, anti-RXR (NR concentration 90 nM, RXRa partner concentration 30 nM)
Test: PBM binding z-score (relative to random genomic background probes); higher = stronger binding; sequences stand for … in GC…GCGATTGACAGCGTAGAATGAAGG
Use 1 when the recorded PBM binding z-score is no lower than 1; use 0 when it is lower.

Request: Could you verify whether the entry ACAGACAGGTGAGTGAAGGGAACTCAGCTGGACG shows PBM binding z-score of no less than 1?
Response: 0

Request: Could you verify whether the entry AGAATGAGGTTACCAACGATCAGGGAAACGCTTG shows PBM binding z-score of no less than 1?
Response: 1

Request: Could you verify whether the entry ATATGTATGTTACATCCGGGTCATTCAGGCTATG shows PBM binding z-score of no less than 1?
Response: 1

Request: Could you verify whether the entry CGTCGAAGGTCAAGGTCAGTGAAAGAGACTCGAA shows PBM binding z-score of no less than 1?
Response: 1

Request: Could you verify whether the entry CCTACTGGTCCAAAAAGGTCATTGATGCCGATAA shows PBM binding z-score of no less than 1?
Response: 1

====

Tested on: PPARg:RXRa DBDmut IVT, anti-RXR (DBD mutation: RXRa K156A/R161A, NR concentration 270 nM, RXRa partner concentration 90 nM)
Test: PBM binding z-score (relative to random genomic background probes); higher = stronger binding; sequences stand for … in GC…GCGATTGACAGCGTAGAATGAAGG
Recorded PBM binding z-score determines the group label, using low class = under 0.7, middle class = from 0.7 up to 3, high class = 3 and over

Study these solved cases before continuing.
ATATGTAGGTTACATCCGGGTAATTCAGGCTATG = high class
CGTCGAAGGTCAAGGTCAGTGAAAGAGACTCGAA = middle class

Okay, next one:
Request: Classify this sequence: TCGAGTAGGTTACCAATGGGGCTTTCAGCTTTCT
Response: high class

# credit: the supplement of paper PMC6555819
